- Tested on: DLD-1
- assay-details: Cell viability assay (ATPlite)
- Format: cell-based
- setup-conditions: Homo sapiens; DLD-1 cell line, 72 hours incubation
recorded-endpoint: IC50 (µM)
Dear colleague, please return just the value in µM, with no unit written.

Find the measured IC50 of O=C(c1ccc(Oc2ccccc2)cc1Cl)c1c[nH]c2ncnc(N[C@@H]3CC[C@@H](CO)OC3)c12 [nemtabrutinib] with DLD-1 as test system.
4.6

====

- Test system: HT-29
- assay-details: Cell viability assay (ATPlite)
- Format: cell-based
- setup-conditions: Homo sapiens; HT-29 cell line, 72 hours incubation
recorded-endpoint: pIC50
Field pIC50 (float): negative decimal logarithm of the concentration in molar.

Find the measured pIC50 of O=C(c1ccc(Oc2ccccc2)cc1Cl)c1c[nH]c2ncnc(N[C@@H]3CC[C@@H](CO)OC3)c12 [nemtabrutinib] with HT-29 as test system.
6.43

Reference for the values: paper PMC12586182
